Ref: patent US8754068B2

Listed below: EC50 values for each entry.
# System: recombinant NL4-3 virus (Renilla luciferase in nef, Gag P373S)
# Experiment notes: HIV cell culture assay (luciferase reporter virus in MT-2 cells)
# Type: cell-based
# Condition label: NL43

{"Smiles notation": "C=C(C)[C@@H]1CC[C@]2(CO)CC[C@]3(C)[C@H](CC[C@@H]4[C@@]5(C)CC=C(c6ccc(O)c(F)c6)C(C)(C)[C@@H]5CC[C@]43C)[C@@H]12", "Measured on": "recombinant NL4-3 virus (Renilla luciferase in nef, Gag P373S)", "EC50": "< 1 µM"}
{"Smiles notation": "CC1(C)CC[C@]2(C(=O)O)CC[C@]3(C)C(=CC[C@@H]4[C@@]5(C)CC=C(c6ccc(C(=O)O)cc6)C(C)(C)[C@@H]5CC[C@]43C)[C@@H]2C1", "Measured on": "recombinant NL4-3 virus (Renilla luciferase in nef, Gag P373S)", "EC50": "< 1 µM"}
{"Smiles notation": "C=C(C)[C@@H]1CC[C@]2(CO)CC[C@]3(C)[C@H](CC[C@@H]4[C@@]5(C)CC=C(c6ccc(NS(C)(=O)=O)cc6)C(C)(C)[C@@H]5CC[C@]43C)[C@@H]12", "Measured on": "recombinant NL4-3 virus (Renilla luciferase in nef, Gag P373S)", "EC50": "> 1 µM"}
{"Smiles notation": "C=C(C)[C@@H]1CC[C@]2(C(=O)O)CC[C@]3(C)[C@H](CC[C@@H]4[C@@]5(C)CC=C(c6ccc(C(=O)O)s6)C(C)(C)[C@@H]5CC[C@]43C)[C@@H]12", "Measured on": "recombinant NL4-3 virus (Renilla luciferase in nef, Gag P373S)", "EC50": "< 1 µM"}

Next up:
Exercise: // EC50 lookup, key: C=C(C)[C@@H]1CC[C@]2(CO)CC[C@]3(C)[C@H](CC[C@@H]4[C@@]5(C)CC=C(c6ccc(C(=O)O)c(OC)c6)C(C)(C)[C@@H]5CC[C@]43C)[C@@H]12
Key: 0.5 µM

====

# Test system: recombinant NL4-3 virus (Renilla luciferase in nef, Gag P373S)
# Experiment notes: HIV cell culture assay (luciferase reporter virus in MT-2 cells)
# Format: cell-based
# Condition label: NL43
Observed property: EC50

See these solved cases before continuing.
{"Compound": "C=C(C)[C@@H]1CC[C@]2(C(=O)O)CC[C@]3(C)[C@H](CC[C@@H]4[C@@]5(C)CC=C(c6cccc(-c7nn[nH]n7)c6)C(C)(C)[C@@H]5CC[C@]43C)[C@@H]12 [Example 4i]", "Observed property": "EC50", "Observed value": "> 1000 nM"}
{"Compound": "C=C(C)[C@@H]1CC[C@]2(C(=O)O)CC[C@]3(C)[C@H](CC[C@@H]4[C@@]5(C)CC=C(c6ccccc6CCC(=O)O)C(C)(C)[C@@H]5CC[C@]43C)[C@@H]12 [Example 4l]", "Observed property": "EC50", "Observed value": "> 1000 nM"}

Exercise: // EC50 lookup, key: C=C(C)[C@@H]1CC[C@]2(CO)CC[C@]3(C)[C@H](CC[C@@H]4[C@@]5(C)CC=C(c6ccc(C(=O)O)c(Cl)c6)C(C)(C)[C@@H]5CC[C@]43C)[C@@H]12 [Example 5a]
Key: < 1000 nM

Exercise: Entry C=C(C)[C@@H]1CC[C@]2(C(=O)O)CC[C@]3(C)[C@H](CC[C@@H]4[C@@]5(C)CC=C(c6ccc(C(=O)OC)cc6)C(C)(C)[C@@H]5CC[C@]43C)[C@@H]12 [Example 7] please
Key: > 1000 nM

Exercise: Entry C=C(C)[C@@H]1CC[C@]2(C(=O)O)CC[C@]3(C)[C@H](CC[C@@H]4[C@@]5(C)CC=C(c6ccc(CCC(=O)O)cc6)C(C)(C)[C@@H]5CC[C@]43C)[C@@H]12 [Example 4a] please
Key: < 1000 nM

====

# Test system: recombinant NL4-3 virus (Renilla luciferase in nef, Gag P373S)
# Experiment notes: HIV cell culture assay (luciferase reporter virus in MT-2 cells)
# Assay type: cell-based
# Condition label: NL43
pEC50: −log10 of the molar value.
Listed below: pEC50 values for each entry.

{"Compound": "C=C(C)[C@@H]1CC[C@]2(CO)CC[C@]3(C)[C@H](CC[C@@H]4[C@@]5(C)CC=C(c6cc(C(=O)O)[nH]n6)C(C)(C)[C@@H]5CC[C@]43C)[C@@H]12 [Example 8]", "pEC50": "> 6.00"}

Next up:
Exercise: // pEC50 lookup, key: CC(C)[C@@H]1CC[C@]2(C(=O)O)CC[C@]3(C)[C@H](CC[C@@H]4[C@@]5(C)CC[C@H](c6cccc(C(=O)O)c6)C(C)(C)[C@@H]5CC[C@]43C)[C@@H]12 [Example 3a]
Key: 5.70

====

Listed below: EC50 values for each entry.
# System: recombinant NL4-3 virus (Renilla luciferase in nef, Gag P373S)
# Experiment notes: HIV cell culture assay (luciferase reporter virus in MT-2 cells)
# Assay type: cell-based
# Condition label: NL43

See these solved cases before continuing.
{"Compound": "C=C(C)[C@@H]1CC[C@]2(CO)CC[C@]3(C)[C@H](CC[C@@H]4[C@@]5(C)CC=C(c6ccc(S(N)(=O)=O)cc6)C(C)(C)[C@@H]5CC[C@]43C)[C@@H]12 [Example 5j]", "Observed value": "< 1000 nM"}
{"Compound": "C=C(C)[C@@H]1CC[C@]2(C(=O)OC)CC[C@]3(C)[C@H](CC[C@@H]4[C@@]5(C)CC=C(c6cccc(C(=O)O)c6)C(C)(C)[C@@H]5CC[C@]43C)[C@@H]12 [Example 1a]", "Observed value": "> 1000 nM"}
{"Compound": "C=C(C)[C@@H]1CC[C@]2(CO)CC[C@]3(C)[C@H](CC[C@@H]4[C@@]5(C)CC=C(c6ccc(C(=O)O)cc6)C(C)(C)[C@@H]5CC[C@]43C)[C@@H]12 [Example 5b]", "Observed value": "< 1000 nM"}
{"Compound": "C=C(C)[C@@H]1CC[C@]2(CO)CC[C@]3(C)[C@H](CC[C@@H]4[C@@]5(C)CC=C(c6ccc(C(=O)O)c(O)c6)C(C)(C)[C@@H]5CC[C@]43C)[C@@H]12 [Example 5p]", "Observed value": "< 1000 nM"}
{"Compound": "C=C(C)[C@@H]1CC[C@]2(CO)CC[C@]3(C)[C@H](CC[C@@H]4[C@@]5(C)CC=C(c6ccc(C(=O)O)cc6Cl)C(C)(C)[C@@H]5CC[C@]43C)[C@@H]12 [Example 5n]", "Observed value": "< 1000 nM"}

Exercise: // EC50 lookup, key: C=C(C)[C@@H]1CC[C@]2(C(=O)O)CC[C@]3(C)[C@H](CC[C@@H]4[C@@]5(C)CC=C(c6ccc(NC(=O)CCC(=O)O)cc6)C(C)(C)[C@@H]5CC[C@]43C)[C@@H]12 [Example 4b]
Key: > 1000 nM

Exercise: Entry C=C(C)[C@@H]1CC[C@]2(C(=O)O)CC[C@]3(C)[C@H](CC[C@@H]4[C@@]5(C)CC=C(c6ccc(S(C)(=O)=O)cc6)C(C)(C)[C@@H]5CC[C@]43C)[C@@H]12 [Example 4j] please
Key: > 1000 nM

Exercise: Entry C=C(C)[C@@H]1CC[C@]2(CO)CC[C@]3(C)[C@H](CC[C@@H]4[C@@]5(C)CC=C(c6ccc(O)c(Cl)c6)C(C)(C)[C@@H]5CC[C@]43C)[C@@H]12 [Example 5g] please
Key: > 1000 nM

Exercise: Entry C=C(C)[C@@H]1CC[C@]2(C(=O)O)CC[C@]3(C)[C@H](CC[C@@H]4[C@@]5(C)CC=C(c6ccc(C(=O)O)cc6)C(C)(C)[C@@H]5CC[C@]43C)[C@@H]12 [Example 2b] please
Key: < 1000 nM

====

# Tested on: recombinant NL4-3 virus (Renilla luciferase in nef, Gag P373S)
# Experiment notes: HIV cell culture assay (luciferase reporter virus in MT-2 cells)
# Format: cell-based
# Condition label: NL43
Observed property: EC50

{"Smiles notation": "C=C(C)[C@@H]1CC[C@]2(C(=O)O)CC[C@]3(C)[C@H](CC[C@@H]4[C@@]5(C)CC=C(c6ccc(C(=O)NS(=O)(=O)C(C)C)cc6)C(C)(C)[C@@H]5CC[C@]43C)[C@@H]12", "EC50": "< 1 µM"}
{"Smiles notation": "C=C(C)[C@@H]1CC[C@]2(CO)CC[C@]3(C)[C@H](CC[C@@H]4[C@@]5(C)CC=C(c6ccc(-c7nn[nH]n7)cc6)C(C)(C)[C@@H]5CC[C@]43C)[C@@H]12", "EC50": "> 1 µM"}
{"Smiles notation": "C=C(C)[C@@H]1CC[C@]2(C(=O)O)CC[C@]3(C)[C@H](CC[C@@H]4[C@@]5(C)CC=C(c6ccc(C(=O)NS(C)(=O)=O)cc6)C(C)(C)[C@@H]5CC[C@]43C)[C@@H]12", "EC50": "< 1 µM"}
{"Smiles notation": "C=C(C)[C@@H]1CC[C@]2(C(=O)O)CC[C@]3(C)[C@H](CC[C@@H]4[C@@]5(C)CC=C(c6ccc(/C=C/C(=O)O)cc6)C(C)(C)[C@@H]5CC[C@]43C)[C@@H]12", "EC50": "< 1 µM"}

Next up:
Exercise: // EC50 lookup, key: C=C(C)[C@@H]1CC[C@]2(CO)CC[C@]3(C)[C@H](CC[C@@H]4[C@@]5(C)CC=C(c6csc(C(=O)O)c6)C(C)(C)[C@@H]5CC[C@]43C)[C@@H]12
Key: < 1 µM
